target_under_test: HLA-A*02:11
protocol_text: IEDB peptide-MHC binding, purified MHC/competitive/fluorescence; filed as Kd, often an IC50 or EC50 that approximates it; bounds were set here for any values at or beyond the usual limits of such assays
condition_label: source organism: Bradyrhizobium diazoefficiens
measured_attribute: Kd (nM)
Answers are plain numbers, in nM.

[ask] What reported Kd corresponds to `VTPGPHAQI` on HLA-A*02:11?
[reply] 70.4

---

target_under_test: HLA-A*32:01
protocol_text: IEDB peptide-MHC binding, purified MHC/competitive/radioactivity; filed as Kd, often an IC50 or EC50 that approximates it; bounds were set here for any values at or beyond the usual limits of such assays
condition_label: source organism: Mammarenavirus brazilense
pKd: −log10 of the molar value.
measured_attribute: pKd

[ask] Suppose we examine the sequence `TADDITMGY` ; what pKd value has been reported?
[reply] ≤ 4.11

---

target_under_test: HLA-B*44:02
protocol_text: IEDB peptide-MHC binding, purified MHC/direct/fluorescence; filed as Kd, often an IC50 or EC50 that approximates it; bounds were set here for any values at or beyond the usual limits of such assays
condition_label: source organism: Brucella suis
pKd: −log10 of the molar value.
measured_attribute: pKd

[ask] Suppose we examine the sequence `YQRRRRFAI` ; what pKd value has been reported?
[reply] ≤ 4.70

---

target_under_test: HLA-A*33:01
protocol_text: IEDB peptide-MHC binding, purified MHC/competitive/radioactivity; filed as Kd, often an IC50 or EC50 that approximates it; bounds were set here for any values at or beyond the usual limits of such assays
condition_label: source organism: Mammarenavirus lassaense
measured_attribute: Kd

[ask] What reported Kd corresponds to `TCQGSDDIKK` on HLA-A*33:01?
[reply] ≥ 24.2 µM

---

target_under_test: HLA-B*07:02
protocol_text: IEDB peptide-MHC binding, purified MHC/direct/fluorescence; filed as Kd, often an IC50 or EC50 that approximates it; bounds were set here for any values at or beyond the usual limits of such assays
condition_label: source organism: Vibrio vulnificus CMCP6
measured_attribute: Kd

[ask] Suppose we examine the sequence `TTILGLLPM` ; what Kd value has been reported?
[reply] ≥ 20 µM

---

target_under_test: HLA-A*02:03
protocol_text: IEDB peptide-MHC binding, purified MHC/competitive/fluorescence; filed as Kd, often an IC50 or EC50 that approximates it; bounds were set here for any values at or beyond the usual limits of such assays
condition_label: source organism: Human immunodeficiency virus 1
Provide the reported Kd of each item.
Give bare numbers, in nM.

VLYCVHQRV: 4.7

Would you kindly look at the next entry?
[ask] Suppose we examine the sequence `RSLFNTVAVLY` ; what Kd value has been reported?
[reply] 644

---

target_under_test: HLA-A*26:01
protocol_text: IEDB peptide-MHC binding, purified MHC/direct/fluorescence; filed as Kd, often an IC50 or EC50 that approximates it; bounds were set here for any values at or beyond the usual limits of such assays
condition_label: source organism: Aggregatibacter actinomycetemcomitans
measured_attribute: Kd

[ask] Suppose we examine the sequence `RSEVELCIY` ; what Kd value has been reported?
[reply] ≥ 20 µM

---

target_under_test: HLA-A*69:01
protocol_text: IEDB peptide-MHC binding, purified MHC/direct/fluorescence; filed as Kd, often an IC50 or EC50 that approximates it; bounds were set here for any values at or beyond the usual limits of such assays
condition_label: source organism: Brucella suis
pKd: −log10 of the molar value.
measured_attribute: pKd

[ask] Suppose we examine the sequence `YQRRRRFAI` ; what pKd value has been reported?
[reply] ≤ 4.70

Data provenance is the Immune Epitope Database (IEDB).
